Reported inhibition of PMA-induced release of IL-6R from U-937 cells, 1 µg/ml values follow for various binders
Molecular target: T1, human iRhom2 (inactive rhomboid protein 2, isoform 1), endogenously expressed on human cells (human, UniProt Q6PJF5 1-856)
T1 sequence: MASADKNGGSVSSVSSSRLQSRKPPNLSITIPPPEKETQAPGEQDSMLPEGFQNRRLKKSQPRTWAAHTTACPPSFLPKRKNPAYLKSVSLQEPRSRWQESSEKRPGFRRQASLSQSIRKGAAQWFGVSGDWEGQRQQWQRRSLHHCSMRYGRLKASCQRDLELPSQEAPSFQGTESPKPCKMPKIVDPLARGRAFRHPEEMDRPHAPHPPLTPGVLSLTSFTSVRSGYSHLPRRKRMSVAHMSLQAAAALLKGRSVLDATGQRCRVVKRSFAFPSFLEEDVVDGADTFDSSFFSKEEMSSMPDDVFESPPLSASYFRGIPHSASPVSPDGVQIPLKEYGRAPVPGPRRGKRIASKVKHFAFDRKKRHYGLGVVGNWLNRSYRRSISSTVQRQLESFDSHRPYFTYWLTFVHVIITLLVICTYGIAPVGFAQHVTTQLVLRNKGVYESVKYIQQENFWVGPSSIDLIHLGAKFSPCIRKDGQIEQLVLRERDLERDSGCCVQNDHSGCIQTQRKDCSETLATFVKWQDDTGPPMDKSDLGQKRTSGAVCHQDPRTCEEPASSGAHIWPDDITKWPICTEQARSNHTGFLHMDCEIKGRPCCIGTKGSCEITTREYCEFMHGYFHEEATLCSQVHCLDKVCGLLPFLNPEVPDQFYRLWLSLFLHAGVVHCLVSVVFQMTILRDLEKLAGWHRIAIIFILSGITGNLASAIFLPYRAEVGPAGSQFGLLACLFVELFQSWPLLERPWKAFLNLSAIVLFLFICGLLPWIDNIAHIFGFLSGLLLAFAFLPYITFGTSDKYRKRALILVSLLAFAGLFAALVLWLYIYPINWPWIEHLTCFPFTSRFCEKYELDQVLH
Test: cell-based or functional assay
Measurement label: inhibition of PMA-induced release of IL-6R from U-937 cells, 1 µg/ml (% inhibition)

[[record]]
binder = "antibody 5 (antibody, V domains shown, Mouse IgG, kappa light chain; also called clone #5; purified antibody 5) VH: QVTLKESGPGILQPSQTLSLTCSFSGFSLSTFGMGVGWIRQPSGKGLEWLAHIWWDDEKYYNSALKSRLTISKATSKNQAFLKIANVDTADTATYYCARISNYGSNYWYFNVWGTGTTVTVSS VL: QVVLTQSPALMSASPGEKVTMTCSAGSSVSCMYWYQQKPGSSPRVLIYDTSNLASGVPARFTGSGSGTSYSLTISRMEAEDAASYYCQQWNSYPLTFGAGTKLELK"
measure_unit = "% inhibition"
recorded_result = 67

[[record]]
binder = "antibody 22 (antibody, V domains shown, Mouse IgG, kappa light chain; also called clone #22; m22) VH: QVTLKESGPGILQPSQTLSLTCSFSGFSLSTFGMGVGWIRQPSGKGLEWLAHIWWDDEKYYNSALKSRLTISKATSKNQVFLKIANVDTADTATYYCARISNYGSNYWYFNVWGTGTTVTVSS VL: QVVLTQSPALMSASPGEKVTMTCSAGSSVSYMYWYQQKPGSSPRVLIYDTSNLASGVPARFTGSGSGTSYSLTISRMEAEDAATYYCQQWNSYPLTFGAGTKLELK"
measure_unit = "% inhibition"
recorded_result = 74.5

[[record]]
binder = "antibody 43 (antibody, V domains shown, Mouse IgG, kappa light chain; also called clone #43) VH: QVALKESGPGILQPSQTLSLTCSFSGFSLSTFGMGVGWIRQSSGKGLEWLANIWWDDDKYYNPALKSRLTISKDASKNQAFLKIANVDTADTATYYCARIGNYGSNYWYFDVWGTGTTVTVSS VL: QIVLTQSPAIMSASPGERVTMTCSANSRISYMYWYQQKPGSSPRLLIYDTSNLASGVPVRFSGSGSGTSYSLTISRMEAEDAATYNCQQWSSYPLTFGAGTKLELK"
measure_unit = "% inhibition"
recorded_result = 76.1

